Target: BRD4 BD2 (Homo sapiens, UniProt O60885, Y97A)
Construct: BRD4 (1-477) (Y97A) and (Y390A); made in house; host or cells: E. coli (pET15b vector)
Experiment: BRD4 BD2 TR-FRET competition assay
Type: binding
Settings: mean where stated, n given; read-out: pIC50 in the BRD4 BD2 TR-FRET assay (converted)
Experimental: Bromodomain binding was assessed utilising a time resolved fluorescent resonance energy transfer (TR-FRET) competition assay. […] Europium chelate, conjugated to an anti-6*His antibody, was utilised as the donor fluorophore in the TR-FRET pair. In order to generate a TR-FRET signal, donor fluorophore is excited by a laser at λ337 nm, which subsequently leads to emission at λ618 nm. […]
Consider the following compounds and their measured IC50 readings.

>  <compound>
CNC(=O)c1cc(C(=O)N[C@H]2[C@@H]3COC[C@@H]32)cc2c1O[C@@H](C)[C@@H]2c1cccc(OCCO)c1 [Example 181]

>  <IC50>
1000 to 100000 nM

$$$$
>  <compound>
CNC(=O)c1cc(C(=O)NCCCC2CNCCO2)cc2c1O[C@H](C)[C@H]2c1ccccc1 (stereo partly shown) [Example 54]

>  <IC50>
15.8 nM

$$$$
>  <compound>
CNC(=O)c1cc(C(=O)N[C@H]2[C@@H]3COC[C@@H]32)cc2c1O[C@@H](C)[C@@H]2c1cccc(OCCOC)c1 [Example 201]

>  <IC50>
1000 to 100000 nM

$$$$
>  <compound>
CNC(=O)c1cc(C(=O)Nc2cn(C)nn2)cc2c1O[C@@H](CF)[C@@H]2c1ccccc1 [Example 194]

>  <IC50>
1000 to 100000 nM

$$$$
